Biological target: T1, human TIGIT over-expressed on cells (human, UniProt Q495A1 22-244)
T1 construct: also called CHO-K1/human TIGIT cells; CHO cells expressing human TIGIT
T1 sequence: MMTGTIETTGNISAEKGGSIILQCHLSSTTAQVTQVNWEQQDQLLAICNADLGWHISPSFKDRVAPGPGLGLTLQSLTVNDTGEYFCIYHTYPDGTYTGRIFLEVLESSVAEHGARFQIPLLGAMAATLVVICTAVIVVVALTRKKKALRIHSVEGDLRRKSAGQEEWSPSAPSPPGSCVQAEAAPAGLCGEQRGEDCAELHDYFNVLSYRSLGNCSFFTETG
Test: FACS, CHO-K1 cells over-expressing human TIGIT
QUANTITY_NAME: EC50 (nM)
Report only the number, with the unit nM understood.

// query Field request: EC50 | item: 64G1E9B4VH1_VL1.M1 (antibody, human IgG1, V domains shown, Humanized antibody, variable domains fused with the constant region of human IgG1; also called 64G1VH1_VL1.M1) VH: EVQLVQSGAEVKKPGSSVKVSCKASGYTFTEHVIHWVRQAPGQGLEWMGGFNPNHDGTIYNQIFRGRVTITADKSTSTAYMELSSLRSEDTAVYYCARAAKLLFAMDYWGQGTTVTVSS VL: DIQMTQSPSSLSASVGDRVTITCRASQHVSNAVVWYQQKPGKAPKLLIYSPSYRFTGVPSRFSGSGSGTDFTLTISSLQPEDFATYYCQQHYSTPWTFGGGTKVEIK
// result 0.89

// query // repeat for 64G1E9B4VH1.M1_VL1.M1 (antibody, human IgG1, V domains shown, Humanized antibody, variable domains fused with the constant region of human IgG1; also called 64G1VH1.M1_VL1.M1) VH: EVQLVQSGAEVKKPGSSVKVSCKASGYTFTEHVIHWVRQAPGQGLEWMGGFNPNHGGTIYNQIFRGRVTITADKSTSTAYMELSSLRSEDTAVYYCARAAKLLFAMDYWGQGTTVTVSS VL: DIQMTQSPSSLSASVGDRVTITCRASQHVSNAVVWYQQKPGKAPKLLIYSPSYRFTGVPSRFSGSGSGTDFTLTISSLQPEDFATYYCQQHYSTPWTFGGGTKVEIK and report
// result 0.43

// query Now consider 100C4E7D11VH1_VL1 (antibody, V domains shown, Humanized antibody, variable domains fused with the constant region of human IgG1; also called 100C4VH1_VL1) VH: EVQLVESGGGLVKPGGSLRLSCAASGFTFSFYTMSWVRQAPGKGLEWVSTISSGGGSTYYSDSVKGRFTISRDNAKNSLYLQMNSLRAEDTAVYYCARSLPVDYWGQGTTVTVSS VL: EIVLTQSPGTLSLSPGERATLSCTASSSVSSTYLHWYQQKPGQAPRLLIYSTSNLASGIPDRFSGSGSGTDFTLTISRLEPEDFAVYYCHLYHHSPYTFGGGTKVEIK and answer again.
// result 1.15

// query Record: 100C4E7D11 chimeric (antibody, V domains shown, also called 100C4 Chimeric) VH: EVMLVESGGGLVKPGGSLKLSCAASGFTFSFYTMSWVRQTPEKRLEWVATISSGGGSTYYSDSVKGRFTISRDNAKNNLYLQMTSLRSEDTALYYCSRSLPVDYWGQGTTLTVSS VL: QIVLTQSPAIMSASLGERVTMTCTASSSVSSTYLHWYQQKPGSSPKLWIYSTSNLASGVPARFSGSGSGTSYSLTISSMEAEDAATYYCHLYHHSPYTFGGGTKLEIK
// result 0.58

// query Next record, please: 64G1E9B4 chimeric (antibody, V domains shown, also called 64G1 Chimeric) VH: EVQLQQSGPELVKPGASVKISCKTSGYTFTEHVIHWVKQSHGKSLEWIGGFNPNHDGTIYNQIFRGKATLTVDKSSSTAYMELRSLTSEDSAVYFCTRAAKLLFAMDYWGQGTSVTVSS VL: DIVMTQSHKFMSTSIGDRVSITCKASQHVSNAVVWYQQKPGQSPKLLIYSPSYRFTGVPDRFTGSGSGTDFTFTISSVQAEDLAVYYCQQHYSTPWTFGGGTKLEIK
// result 0.47
